B1: HDV Ribozyme (parent)
chain: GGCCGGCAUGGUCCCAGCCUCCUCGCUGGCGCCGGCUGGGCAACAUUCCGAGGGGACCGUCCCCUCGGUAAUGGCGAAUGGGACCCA

# Variants of: B1
# test_method_notes: self-cleavage, relative activity (ratio to wild type); higher = more cleavage; co-transcriptional
Class membership depends on self-cleavage alone; the intervals are L (below 0.2), M (0.2 to below 0.3), H (0.3 or more)

{"construct_sequence": "GGCCGGCAUGGUCCCAGCCUCCUCGCUGGCGCCGGCUGGGCAACAUUCCGAGGGGACCGUCCCCUCGGUAAUGGCGACUAGGACCCA", "discrete_label": "L"}
{"construct_sequence": "GGCCGGCAUGGUCCCAGCCUCCUCGCUGGCGCCGGAUGGGCAACACUCCGAGGGGACCGUCCCCUCGGUAAUGGCGAAUGGGACCCA", "discrete_label": "L"}
{"construct_sequence": "GGCCGGCACGGUCCCAGCCUCCUCGCUGGCGCCGGCUGGGCAACAUUCCGAGGGGACCGUCCUCUCGGUAAUGGCGAAUGGGACCCA", "discrete_label": "H"}
{"construct_sequence": "GGCCGGCAUGGUCCCAGCCUCCUCGCUGGCGCCGGCUGGGCAACAUUCCGAGGGGACCGUCCCAUCGGUAAUGGUGAAUGGGACCCA", "discrete_label": "H"}
{"construct_sequence": "GGCCGGCUUGGUCCCAGCCUCCUCGCUGGCGCCGGCUGCGCAACAUUCCGAGGGGACCGUCCCCUCGGUAAUGGCGAAUGGGACCCA", "discrete_label": "L"}
{"construct_sequence": "GGCCGGCAUGGUCCCAGCAUCCUCGCUGGCGCCGGCUGGGCAACAUUCCGAGGGGAACGUCCCCUCGGUAAUGGCGAAUGGGACCCA", "discrete_label": "L"}
{"construct_sequence": "GGCCGACAUGGUCCCAGCCUCCUCGCUGGCGCCGGCUGGGCAACAUUCCGAGGGGACCGUCCCGUCGGUAAUGGCGAAUGGGACCCA", "discrete_label": "H"}
{"construct_sequence": "GGCCGGCAUGGUCCCAGCCUCCUCGCUGGCGCCGGCUGCGCAACAUUCCGAGGGGACCGUCCCCUCGGUAAUGGCGAAUGGGACCGA", "discrete_label": "M"}
{"construct_sequence": "GGCCGGCAUGGUCCCAGCCUCCUCGCAGGCGCCGGCUGGGCAACAUUCCGAGGGGACCGUCCCCUCGGUAAUGGCGAGUGGGACCCA", "discrete_label": "M"}
